These measurements were taken from PubChem BioAssay (NCI).

In this section, each of the molecules is paired with its reported TGI.
# System: NCI-H460 lung
# assay details: NCI tumour cell line growth inhibition, 48 h
recorded endpoint: TGI

molecule: Cc1cnc(-c2ccc(-c3ccc(NC(=O)Nc4c(F)cc(F)cc4F)cc3F)c3c2C(=O)NC3)[nH]1
obs value: 2.75 µM

molecule: COc1cc(OC)c(/C=N\Nc2nc3ccccc3c(=O)n2-c2ccccc2)c(OC)c1
obs value: > 77.8 µM

molecule: CC(=O)N[C@@H](Cc1ccc(OP(=O)(O)O)cc1)C(=O)N[C@H]1CCC(=O)N2CCC[C@@H](C(=O)NC3CCc4ccccc43)N2C1=O (stereo partly drawn)
obs value: > 25 µM
